Could you please report measured pKD for the items listed next?
# target.entity: biotinylated extracellular domain of the human GIP receptor (bioGIPR) (human) (UniProt P48546)
# Sequence (P48546 24-138 limits assumed): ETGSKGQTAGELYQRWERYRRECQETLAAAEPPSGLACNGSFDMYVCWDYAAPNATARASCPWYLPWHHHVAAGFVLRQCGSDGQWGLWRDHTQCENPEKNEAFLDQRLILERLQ
# protocol.text: SPR single cycle kinetics, bioGIPR captured on chip; category A: pKD >9.0
*1 amine or outer side, *2 acyl side, *3 side chain or, on linkers, in order; H or OH if unused. Bridges are numbered along the chain shown (N, C = ends). Primed or numbered codes have the meaning given here. [ ]: non-standard residue; d: D form. The star is where a group is joined. Ttds = 1,13-diamino-4,7,10-trioxatridecan-succinamic acid, NCCCOCCOCCOCCCNC(=O)CCC(=O)*; dE(AGLU) = D-glutamic acid bearing 1-amino-1-deoxy-D-glucitol; DOTA = O=C(O)CN1CCN(CC(=O)O)CCN(CC(=O)*)CCN(CC(=O)O)CC1; 2Lut = 2,6-lutidylidene bridge between two thiols; Trp(5-Cl) = N[C@@H](Cc1c[nH]c2ccc(Cl)cc12)C(=O)O; Pyridine(2,6-diCH2) = c1cc(C[*:1])nc(C[*:2])c1; APAc = 4-amino-1-carboxymethylpiperidine; Pro(4S-NH2) = N[C@@H]1CN[C@H](C(=O)O)C1; mXylylene = c1cc(C[*:1])cc(C[*:2])c1; Hyp = O=C(O)[C@@H]1C[C@@H](O)CN1; Cysteamide = C(CS[*:3])N[*:1]; Suc = O=C(CCC(=O)[*:2])[*:1]; N(CH2CH2)2NH = C1CN(*)CCN1; Api = NC1(C(=O)O)CCNCC1; Thp = NC1(C(=O)O)CCOCC1; DOTA′ = DOTA chelator; Aib = CC(C)(N)C(=O)O

{"columns": ["binder", "attribute.measured", "endpoint.result"],
 "data": [
  ["{DOTA-Ttds}-DW[Trp(5-Cl)][Pro(4S-NH2)]E[dL]C[Aib]LI[Cysteamide] (linker 7-11 via mXylylene) [DOTA-Ttds-Asp-Trp-5Clw-4Ap-Glu-leu-[Cys(3MeBn)-Aib-Leu-Ile-AET]]", "pKD", "> 9 pkd"],
  ["{DOTA-dE(AGLU)-APAc}-DW[Trp(5-Cl)][Hyp]E[dL]C[Thp]LIC-{APAc-dE(AGLU)-NH2} (linker 7-11 via Pyridine(2,6-diCH2)) [DOTA-glu(AGLU)-APAc-Asp-Trp-5Clw-Hyp-Glu-leu-[Cys(2Lut)-Thp-Leu-Ile-Cys]-APAc-glu(AGLU)-NH2]", "pKD", "> 9 pkd"],
  ["Suc-W[Trp(5-Cl)][Hyp]E[dL]C[Api](DOTA)LI[Cysteamide] (linker 6-10 via 2Lut) [HO-Succinyl-Trp-5Clw-Hyp-Glu-leu-[Cys(2Lut)-Apc(DOTA)-Leu-Ile-AET]]", "pKD", "> 9 pkd"],
  ["DWXXEXCXLIC (AGLU-Glutar; 5Clw; Hyp; D-leu; Apc(AGLU-Glutar); 2Lut bridge Cys-Cys; APAc; Lys(DOTA); C-term NH2) [AGLU-Glutar-Asp-Trp-5Clw-Hyp-Glu-leu-[Cys(2Lut)-Apc(AGLU-Glutar)-Leu-Ile-Cys]-APAc-Lys(DOTA)-NH2]", "pKD", "> 9 pkd"]
]}

Next binder, pKD to be filled in.
*Q* Identify measured pKD corresponding to Suc-W[Trp(5-Cl)][Hyp]E[dL]C[Thp]LIC-{N(CH2CH2)2NH-DOTA′} (linker 6-10 via 2Lut) [HO-Succinyl-Trp-5Clw-Hyp-Glu-leu-[Cys(2Lut)-Thp-Leu-Ile-Cys]-PP-DOTA]
*A* > 9 pkd
